What inhibition at 10 µM was measured for each of the following?
Tested on: IL-6
run description: IL-6 inhibition in LPS-stimulated THP-1 monocytes (HTRF)
Format: cell-based, human
cond: Homo sapiens; THP-1 cells, LPS stimulated; given only where EC50 >10 μM; top concentration 10 μM; read-out: percentage in parentheses beside EC50 >10 (IL-6 inhibition)
Form entry: value (%) — number only.

For CC(C)(C)C(=O)Nc1cncc(-c2cnc3[nH]nc(-c4cc5c(-c6ccoc6)cccc5[nH]4)c3c2)c1 , what is its reported inhibition at 10 µM?
31.2

Param item = O=C(Nc1cncc(-c2cnc3[nH]nc(-c4cc5c(N6CCCCC6)cccc5[nH]4)c3c2)c1)c1ccccc1 ; retrieve measured inhibition at 10 µM.
21.8

Value lookup for inhibition at 10 µM; key = CN(C)CCNc1cc(F)cc(-c2cccc3[nH]c(-c4n[nH]c5ncc(-c6cncc(CN7CCCCC7)c6)cc45)cc23)c1
43.2
